Readings of growth for the listed compounds
- Tested on: HS 578T breast
- assay_remarks: NCI-60 one-dose screen, 48 h (100 = growth as untreated, 0 = no growth, -100 = all killed)
- measurement_context: 10 µM unless noted
Compounds without any hit were thinned out: in the full panel of roughly 83,000, 20% have a hit. Calls of active or inactive are those of the source. How the source made its calls: active means growth percent below 10; inactive means the rest.

| smiles_repr | growth |
| --- | --- |
| N#C/C(=C\c1ccc(-c2ccc(Cl)c(Cl)c2)o1)C(=O)Nc1ncc(Cc2ccc(Cl)cc2)s1 | -7.83% (active) |
| COc1ccc(-c2cc(-c3ccc(N4CCOCC4)cc3)n3c(n2)nc2ccccc23)cc1OC | 98.2% (inactive) |
| O=C(Nc1ccc(Cl)c(C(F)(F)F)c1)Nc1ccc2c(ccn2C(=O)c2cccc(F)c2)c1 | 52.4% (inactive) |
| O=C1/C(=C/c2cc(F)cc(F)c2)Cc2cc3c(cc21)OCO3 | 46.9% (inactive) |
| C=C1CCc2nc(SCC(=O)O)ccc2N1 | 101% (inactive) |
| COc1ccc2c(c1)c(-c1nn3cc(-c4ccncc4)nc3s1)cn2C | 86.9% (inactive) |
| O=C(N/N=C/c1cc2ccccc2nc1Cl)c1cc(-c2nc3ccccc3[nH]2)nc2ccccc12 | 108% (inactive) |
| C#C[C@]1(O)CC[C@H]2[C@@H]3CC=C4c5sc(Nc6cccc(F)c6)nc5CC[C@]4(C)[C@H]3CC[C@@]21C | -7.5% (active) |
| Nc1nc(=O)n([C@H]2C[C@H](O)[C@@H](CO)O2)cc1C=O | 129% (inactive) |

----------
- Tested on: 786-0 renal
- assay_remarks: NCI-60 one-dose screen, 48 h (100 = growth as untreated, 0 = no growth, -100 = all killed)
- measurement_context: 10 µM unless noted
The panel holds about 83,000 compounds, 20% with a hit somewhere; the sample as a whole holds those more often.
Exam item: assign met to entries whose growth is below 90% and not met to entries at or above 90%. Note that a value of exactly 90% receives not met.

| smiles_repr | group_label |
| --- | --- |
| CCOC(=O)C(=O)Nc1ccc2c(ccn2C(=O)c2cccc(F)c2)c1 | not met |
| Clc1ccc(CSc2nnc(-c3ccc(Cl)cc3)n2-c2ccccc2)cc1 | met |
| Cc1ccc(-c2nc(SCC(=O)c3ccccc3)nc(Nc3ccc(S(N)(=O)=O)cc3)c2C#N)cc1 | met |
| CN1CCN(CCCCCC(=O)Nc2nc(-c3cccc(NS(=O)(=O)c4cccc5c(N(C)C)cccc45)c3)cs2)CC1 | met |
| CCN1CCN(c2ccc(NC(=O)Nc3ccc4c(ccn4-c4ccnc(C(=O)NC)c4)c3)cc2C(F)(F)F)CC1 | met |
| CN1CCN(Cc2ccc(NC(=O)c3cncc(C#Cc4cnc5ccc(OCC6COC6)nn45)c3)cc2C(F)(F)F)CC1 | met |

----------
Readings of growth for the listed compounds
- System: HOP-62 NSCLC
- assay_remarks: NCI-60 one-dose screen, 48 h (100 = growth as untreated, 0 = no growth, -100 = all killed)
- measurement_context: 10 µM unless noted
Compounds without any hit were thinned out: in the full panel of roughly 83,000, 20% have a hit. Activity calls are given as the source filed them. How the source made its calls: active means growth percent below 10; inactive means the rest.

| smiles_repr | growth |
| --- | --- |
| Cc1ccc([C@H]2c3[nH]c4ccccc4c3C[C@H]3C(=O)N(CCCCCCC(=O)NO)CC(=O)N23)s1 | 68% (inactive) |
| COc1ccc(C(C)=C(c2ccc(OCCN(C)C)cc2)c2ccc(OCCN(C)C)cc2)cc1 | -15.8% (active) |
| CCCc1[nH]c(-c2cc(N)ccc2Cl)c2c1C(=O)CCCC2 | 94.5% (inactive) |
| NS(=O)(=O)c1nnc(/N=C/c2c(O)[nH]c3ccccc23)s1 | 86.6% (inactive) |
| COC(=O)c1ccc(NC2=C(Cl)C(=O)c3nc(C)ccc3C2=O)cc1 | 96.8% (inactive) |
| COc1ccc(-c2c(C(N)=O)c(N)n(Cc3nc4ccccc4[nH]3)c(=O)c2C#N)c(OC)c1 | 94.9% (inactive) |
| COc1ccc(N2CCN(C3=C(Cl)C(=O)c4ncccc4C3=O)CC2)cc1 | 85.4% (inactive) |
| Cc1ccc(/C(N)=N/C(N)=N/c2nc3ccccc3s2)cc1 | -42.4% (active) |
| COC(=O)CCCNCCCn1ccc2cc(NCc3cccc(-c4ccccc4)c3C)ccc21 | 81.9% (inactive) |
| NC(=S)n1c(=O)n(-c2cccc(C(F)(F)F)c2)c(=O)c2cc(-c3ccc(F)cc3F)ccc21 | 1.42% (active) |
